target_or_system: T1, hRET.mFc (human)
T1 construct: also called dimeric human RET
assay_text: SPR Biacore T200, mAb capture, 37 C
property_name: koff (s⁻¹)
Please respond with the number in s⁻¹ and leave the unit unwritten.

Report koff for H4H8067P (antibody, human IgG4, V domains shown, human IgG4 Fc (H4H prefix)) VH: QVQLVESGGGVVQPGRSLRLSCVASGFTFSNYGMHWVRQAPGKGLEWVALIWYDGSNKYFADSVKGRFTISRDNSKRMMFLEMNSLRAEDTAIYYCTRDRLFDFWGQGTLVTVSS VL: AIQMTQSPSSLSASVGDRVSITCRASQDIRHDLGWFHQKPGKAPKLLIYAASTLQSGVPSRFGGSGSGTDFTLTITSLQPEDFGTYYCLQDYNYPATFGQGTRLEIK please.
0.000458

Report koff for H4H8058P (antibody, human IgG4, V domains shown, human IgG4 Fc (H4H prefix)) VH: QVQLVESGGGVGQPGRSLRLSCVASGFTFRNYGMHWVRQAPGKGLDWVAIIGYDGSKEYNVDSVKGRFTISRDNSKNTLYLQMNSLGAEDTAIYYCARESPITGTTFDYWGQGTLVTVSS VL: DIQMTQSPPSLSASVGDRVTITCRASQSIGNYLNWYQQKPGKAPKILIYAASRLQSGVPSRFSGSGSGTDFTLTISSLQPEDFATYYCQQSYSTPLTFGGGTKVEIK please.
0.00121

Report koff for H4H8060P (antibody, human IgG4, V domains shown, human IgG4 Fc (H4H prefix)) VH: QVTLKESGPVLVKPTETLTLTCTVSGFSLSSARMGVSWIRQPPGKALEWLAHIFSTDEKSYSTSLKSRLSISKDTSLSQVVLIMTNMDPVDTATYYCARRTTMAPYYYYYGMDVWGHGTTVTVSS VL: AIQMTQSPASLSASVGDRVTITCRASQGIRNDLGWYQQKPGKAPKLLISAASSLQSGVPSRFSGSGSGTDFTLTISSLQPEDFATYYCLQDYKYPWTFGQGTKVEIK please.
0.000592

Report koff for H4H8087P (antibody, human IgG4, V domains shown, human IgG4 Fc (H4H prefix)) VH: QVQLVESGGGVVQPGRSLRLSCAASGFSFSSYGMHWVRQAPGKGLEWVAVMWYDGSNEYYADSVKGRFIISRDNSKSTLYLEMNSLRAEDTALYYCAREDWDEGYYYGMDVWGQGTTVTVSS VL: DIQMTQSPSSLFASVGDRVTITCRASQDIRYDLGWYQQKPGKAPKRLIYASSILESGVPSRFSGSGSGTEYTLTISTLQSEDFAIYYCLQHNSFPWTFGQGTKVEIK please.
0.000441

Report koff for H4H8045P (antibody, human IgG4, V domains shown, human IgG4 Fc (H4H prefix)) VH: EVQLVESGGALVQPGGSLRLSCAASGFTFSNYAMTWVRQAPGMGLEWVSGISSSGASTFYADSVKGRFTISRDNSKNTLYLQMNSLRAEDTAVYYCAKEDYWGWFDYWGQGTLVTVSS VL: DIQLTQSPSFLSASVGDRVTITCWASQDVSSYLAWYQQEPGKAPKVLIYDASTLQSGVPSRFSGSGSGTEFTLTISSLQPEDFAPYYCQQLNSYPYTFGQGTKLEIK please.
0.000382
